Tested on: WT Max(13-93) synthetic (M65Nle)
Assay: PBM 8-mer E-score (E-score (rank enrichment, -0.5 to 0.5)); higher = stronger preferential binding
The full ranking holds about 33,000 sequences; the median of “E-score (rank enrichment, -0.5 to 0.5)” is about -0.0075, and the highest 2% start at about 0.23. Shown is part of a subset that was picked to be rich in the highest values.
The label depends only on PBM 8-mer E-score: satisfied if it is at least 0.05, not satisfied if it is smaller.

Example entries begin here.
residue_codes=GAGCTGGA category="not satisfied"
residue_codes=ACCGGAGT category="not satisfied"
residue_codes=ATACGCAC category=satisfied
residue_codes=CGCGTGCC category=satisfied
residue_codes=CGCACAGA category="not satisfied"

INPUT: I'd appreciate it if you could say whether `AGTACACG` has PBM 8-mer E-score at least equal to 0.05.
OUTPUT: satisfied

INPUT: Entry `ATATTAGG` : is its PBM 8-mer E-score no less than 0.05?
OUTPUT: satisfied

INPUT: Is it the case that `CTCGTGCA` has PBM 8-mer E-score reaching or exceeding 0.05?
OUTPUT: satisfied

INPUT: In plain terms: is recorded PBM 8-mer E-score at least 0.05 for `TGTACACA` ?
OUTPUT: satisfied

INPUT: Dear colleague, could you confirm whether `ACCACGGA` has PBM 8-mer E-score at or above 0.05?
OUTPUT: not satisfied

INPUT: Has `CGTACACA` a recorded PBM 8-mer E-score greater than or equal to 0.05?
OUTPUT: satisfied

INPUT: Hi, just wondering whether `ATATTACG` shows PBM 8-mer E-score of 0.05 or higher.
OUTPUT: satisfied

INPUT: Reported PBM 8-mer E-score at or above 0.05? `CCTACACG`
OUTPUT: not satisfied

INPUT: State whether the measured PBM 8-mer E-score reaches 0.05, counting equality as reaching it, for `GGAGTGCC`
OUTPUT: not satisfied

INPUT: Decide: is the reported value of PBM 8-mer E-score for `CGTACACG` equal to or greater than 0.05?
OUTPUT: satisfied

INPUT: Answer whether PBM 8-mer E-score of `GTGTCCGA` is greater than or equal to 0.05.
OUTPUT: not satisfied

INPUT: Would you say `AGTACACA` shows PBM 8-mer E-score at minimum 0.05?
OUTPUT: satisfied

INPUT: Given `GCCCTGAC` , state whether its PBM 8-mer E-score is at least 0.05.
OUTPUT: satisfied

INPUT: Is reported PBM 8-mer E-score greater than or equal to 0.05 here: `GTAGTACA`
OUTPUT: satisfied

INPUT: Please tell me: is the sequence `CTCGAATA` at or over 0.05 in terms of PBM 8-mer E-score?
OUTPUT: not satisfied

INPUT: Answer whether PBM 8-mer E-score of `TAGTCAAA` is greater than or equal to 0.05.
OUTPUT: satisfied
